System: SK-MEL-5 melanoma
ASSAY_EXPLANATION: NCI tumour cell line growth inhibition, 48 h
MEASURE: TGI

COMPOUND	TGI
Cc1cn([C@@H]2C[C@H]2CO)c(=O)[nH]c1=O	> 100 µM

Please supply the value of reported TGI for the item CCC[CH2][Sn]1([CH2]CCC)[O]Cc2nc(C)ccc2[O]1 25.9 µM

Please supply the value of reported TGI for the item O=C(Cc1ccc([N+](=O)[O-])cc1)OCC#CCOC(=O)Cc1ccc([N+](=O)[O-])cc1 > 10 µM

Please supply the value of reported TGI for the item O=C1O[C@@H](c2ccc3c(c2)OCO3)C2C(=O)O[C@@H](c3ccc4c(c3)OCO4)C12 (stereo partly drawn) > 100 µM

Please supply the value of reported TGI for the item CC(C)(C)C1CCC2(CC1)c1[nH]c3ccccc3c1C1(CCC(C(C)(C)C)CC1)c1[nH]c3ccccc3c12 (stereo not drawn) > 100 µM

Please supply the value of reported TGI for the item CCNC(=O)C1CCCN1C(=O)C(CCCN=C(N)N)NC(=O)C(CC(C)C)NC(=O)C(Cc1c[nH]c2ccccc12)NC(=O)C(Cc1ccc(O)cc1)NC(=O)C(CO)NC(=O)C(Cc1c[nH]c2ccccc12)NC(=O)C(Cc1cnc[nH]1)NC(=O)C1CCC(=O)N1 (stereo not drawn) > 100 µM

Please supply the value of reported TGI for the item O=[N+]([O-])c1ccc(NC(=S)N=Nc2c(O)[nH]c3ccc(Br)cc23)cc1 33.4 µM

Please supply the value of reported TGI for the item CC1=NN(C(=O)Nc2ccccc2)C(=O)C2CCC(=O)N12 (stereo not drawn) > 100 µM

* * *

System: ACHN renal
ASSAY_EXPLANATION: NCI tumour cell line growth inhibition, 48 h; in the data active means GI50 below about 0.43 µM; inactive means the rest
Classes to choose from: active, inactive

In [3]: df
Out[3]:
                                   compound   tested_on     group
0                        OCc1c[nH]c2ccccc12  ACHN renal  inactive
1  [Cl-].[Dy+3].[O-]/N=C(\c1ccccc1)c1ccccn1.[O-]/N=C(\c1ccccc1)c1ccccn1.[O-]/N=C(\c1ccccc1)c1ccccn1  ACHN renal  inactive

In this assay, the call recorded for COC(=O)[C@]12CC[C@@H](C)[C@H](C)[C@@H]1C1=CC[C@@H]3[C@@]4(C)C/C(=N\O)[C@H](O)[C@@]5(C)COC(=C45)C[C@@]3(C)[C@]1(C)CC2 was what? inactive

In this assay, the call recorded for CC[CH2][Sn]([CH2]CC)([O]C(=O)c1cccnc1SC)[O][Sn]([CH2]CC)([CH2]CC)[O]C(=O)c1cccnc1SC was what? inactive

In this assay, the call recorded for CC/C(=C(/c1ccc(O)cc1)c1ccc(OCCNC)cc1)c1ccccc1 was what? inactive

In this assay, the call recorded for CCC[CH2][Sn]1([CH2]CCC)[O]Cc2nc(C)ccc2[O]1 was what? inactive

In this assay, the call recorded for COc1ccc(-c2cnnc3c(-c4cccc(C(F)(F)F)c4)cnn23)cc1 was what? inactive

In this assay, the call recorded for O=C(/C(Br)=C/c1ccccc1)c1ccccc1 was what? inactive

In this assay, the call recorded for COc1cc(C2NC(=O)c3ccccc3N2)ccc1OCCCCCOc1c(OC)cc(C2=NOC(c3cc(OC)c(OC)c(OC)c3)C2)cc1OC (stereo not drawn) was what? inactive

In this assay, the call recorded for O=C1c2cc(Cl)ccc2S(=O)(=O)c2c(NCCCNCCO)nc3ccccc3c21 was what? inactive

In this assay, the call recorded for O=C1CCCCN1CCCCC#Cc1ccccc1C#Cc1ccc([N+](=O)[O-])cc1 was what? inactive

In this assay, the call recorded for CCN(CC)c1ccc(/C=C/c2ccc3cc(C)ccc3[n+]2CC)cc1 was what? active

In this assay, the call recorded for COc1cc([N+](=O)[O-])cc2c3c(n(C)c12)[C@@]1(C)CCC2c4ccc(OCc5ccccc5)cc4CCC2C1C3 (stereo partly drawn) was what? inactive

Source of measurements: PubChem BioAssay (NCI)
